- PROTOCOL TEXT: in vitro
- STUDY CONDITIONS: African green monkey
CC50 values by entry
MEASUREMENT LABEL: CC50

chemical_structure=C[C@@]1(O)[C@H](O)[C@@H](CO)O[C@H]1n1ccc(N)nc1=O measurement_label=CC50 result="> 100 µM"
chemical_structure=CCC(CC)COC(=O)[C@H](C)N[P@](=O)(OC[C@H]1O[C@@](C#N)(c2ccc3c(N)ncnn23)[C@H](O)[C@@H]1O)Oc1ccccc1 measurement_label=CC50 result="> 100 µM"
chemical_structure=CC(C)OC(=O)[C@H](C)N[P@](=O)(OC[C@H]1O[C@@H](n2ccc(=O)[nH]c2=O)[C@](C)(F)[C@@H]1O)Oc1ccccc1 measurement_label=CC50 result="> 100 µM"

----------
- Tested on: CoV-2 and HCoV-OC43
- PROTOCOL TEXT: sofosbuvir antiviral evaluation in additional cells
- Format: cell-based
- STUDY CONDITIONS: Caco-2, read-out: EC50 in Caco-2 cells
MEASUREMENT LABEL: EC50

compound="CC(C)OC(=O)[C@H](C)N[P@](=O)(OC[C@H]1O[C@@H](n2ccc(=O)[nH]c2=O)[C@](C)(F)[C@@H]1O)Oc1ccccc1 [Compound 4, sofosbuvir]" result="> 20 µM"

----------
- System: CoV-2 and HCoV-OC43
- PROTOCOL TEXT: sofosbuvir antiviral evaluation in additional cells
- Assay type: cell-based
- STUDY CONDITIONS: Betacoronavirus 1, OC43, Calu-3, in Homo sapiens, read-out: EC50 in Calu3 cells
pEC50: −log10 of the molar value.
MEASUREMENT LABEL: pEC50

chemical_structure=CC(C)OC(=O)[C@H](C)N[P@](=O)(OC[C@H]1O[C@@H](n2ccc(=O)[nH]c2=O)[C@](C)(F)[C@@H]1O)Oc1ccccc1 result="< 4.70"
